Recorded values, source the METLIN SMRT retention time set (Domingo-Almenara et al. 2019).

Would you kindly list RP-LC retention time for each of these molecules?
assay_summary: gradient 5% acetonitrile 3 min, to 50% in 2 min, to 85% in 15 min, held 3 min, 100 µL/min
run_conditions: column: Zorbax Extend-C18 2.1 x 50 mm; eluents: water / acetonitrile, 0.1% formic acid
Return type: number; implicit unit s.

Query: What value of RP-LC retention time has been reported for the following molecule? COc1ccc2[nH]cc(CCN3CC(C(=O)Nc4ccc(C)cc4C)CC3=O)c2c1 (centres undefined)
Response: 775

Query: I have this molecule here, O=C(NCc1cccs1)c1ccc2c(c1)CC(=O)N2Cc1ccc(F)cc1 , and I need its recorded RP-LC retention time.
Response: 840

Query: Could you tell me which RP-LC retention time is on file for NC(=O)c1c(NC(=O)CSc2ncnc3sc4c(c23)CCC4)sc2c1CCC2 ?
Response: 1100

Query: Which RP-LC retention time is reported for this molecule? CC(Oc1cccc(Cl)c1)C(=O)N1CCn2cnnc2C1 (centres undefined)
Response: 622

Query: Fill in the blank: the reported RP-LC retention time of Cc1cccc(-c2nnc(-c3cccc(S(=O)(=O)N4CCCC4)c3)o2)c1 is ____.
Response: 1050

Query: Item under review: CSc1nnc(-c2nn(C)c3c2CN(C(=O)c2c(F)cccc2F)CC3)n1C . Reported RP-LC retention time?
Response: 695

Query: So what's the measured RP-LC retention time for this one? O=C(c1ccc(Br)cc1)N1CCc2cc(-c3ccno3)ccc21
Response: 1030

Query: Fill blank: measured RP-LC retention time of the molecule Cc1ccc(S(=O)(=O)N2CCC(n3c(-c4ccoc4)nc4cccnc43)C2)cc1 (centres undefined) is ____.
Response: 863

Query: So what's the measured RP-LC retention time for this one? COc1ccc(S(=O)(=O)NCCCn2ccnc2)cc1C(C)(C)C
Response: 589

Query: // query RP-LC retention time value for entry COc1ccc(Cl)cc1NC(=O)C1CCCN(c2cc(=O)n(C)c(=O)n2C)C1 (centres undefined)
Response: 786

Query: RP-LC retention time for COc1ccc(CCNC(=O)C2CCN(S(C)(=O)=O)c3cc(C)ccc3O2)cc1 (centres undefined) ?
Response: 893

Query: Can you share its RP-LC retention time? I mean this molecule: Cc1ccc(S(=O)(=O)N2CCC(c3nc(C(=O)N(C)C)c(C)o3)CC2)cc1C
Response: 878

Query: Look up RP-LC retention time: O=c1n(Cc2ccccc2)nc2c(-c3nc(-c4ccccc4)no3)cccn12
Response: 984

Query: Can you share its RP-LC retention time? I mean this molecule: CCN(CC)C(=O)C1CCN(S(C)(=O)=O)c2cc(Cl)ccc2O1 (centres undefined)
Response: 821

Query: Please look up its RP-LC retention time: CC1CCN(S(=O)(=O)c2ccc(-c3nnc(C(=O)NCC(C)c4ccccc4)o3)cc2)CC1 (centres undefined)
Response: 1140

Query: // query RP-LC retention time value for entry COC(=O)c1cc2ccsc2n1CC(=O)Nc1ccc(F)c(Cl)c1
Response: 1010

Query: What value of RP-LC retention time has been reported for the following molecule? CCOC(=O)c1noc2ncnc(NCC3CCN(Cc4cccc(Cl)c4)CC3)c12
Response: 603

Query: Report RP-LC retention time for COc1ccc(Cl)cc1S(=O)(=O)N1CCC(C(=O)NCCO)CC1 please.
Response: 629

Query: Record request: RP-LC retention time value, item O=C(c1cc(F)ccc1Cl)N1CCN(C(=O)c2nnn3c2COC(c2ccccc2)C3)CC1 (centres undefined)
Response: 894
